For each record, write down the corresponding Minimal Effectives Concentration.
- Test system: B. subtilis KCTC1021
- PROCEDURE_TEXT: Ultrasensitive radial diffusion assay (URDA), MEC
- Format: cell-based, Bacillus subtilis
- CONDITION_INFO: B. subtilis KCTC1021, Gram +, 10 mM PB pH 6.6, 37 °C, x-intercept of units vs log10 concentration, triplicate averaged
Where no end group is shown, it is not given here.
Give the value in µg/mL but do not write µg/mL after it.

What value of Minimal Effectives Concentration has been recorded for this entry: RFPKLMMKLLV-NH2 [ofLBP 2A]
0.8

What value of Minimal Effectives Concentration has been recorded for this entry: KLVKTQLKVLK [ofLBP 4N]
62.5

What value of Minimal Effectives Concentration has been recorded for this entry: RFPGLMMKLLV-NH2 (C-terminus assumed) [ofLBP 1N]
1.4

What value of Minimal Effectives Concentration has been recorded for this entry: KLVKTWLKVLK [ofLBP 5A]
0.7

What value of Minimal Effectives Concentration has been recorded for this entry: MKLVKTWLKVLK-NH2 [ofLBP 6A]
1.4
